Origin of the recorded values: patent US20230017045A1

Please respond with reported pest or weed control at 140 g/ha for every item in the list.
System: test plant species
Experiment: Post-emergent herbicidal activity test (greenhouse, foliar spray, visual growth reduction)
Assay type: in vivo
Conditions: post-emergence, 336 h, ORYSA: rice (Oryza sativa), 140 g ai/ha, 14 days after application, read-out: Visual Growth Reduction (%) 14 Days After Application, ORYSA
Text: Post-emergent Test: Seeds or nutlets of the desired test plant species were planted in Sun Gro Metro-Mix® 360 planting mixture, which typically has a pH of 6.0 to 6.8 and an organic matter content of about 30 percent, in plastic pots with a surface area of 64 square centimeters. In some aspects, to ensure good germination and healthy plants, a fungicide treatment and/or other chemical or physical treatment was applied. […]

I am curious: what pest or weed control at 140 g/ha value has been reported for O=C(O)c1nc(-c2ccc(C(F)(F)F)nc2)c(Cl)cc1Cl ?
0 to 29%

I am curious: what pest or weed control at 140 g/ha value has been reported for COC(=O)c1nc(-c2cc(F)c(C)cc2Cl)ccc1Cl ?
0 to 29%

I am curious: what pest or weed control at 140 g/ha value has been reported for COC(=O)c1nc(-c2ccc(C(F)(F)F)c(F)c2F)c(F)cc1Cl ?
0 to 29%

I am curious: what pest or weed control at 140 g/ha value has been reported for COC(=O)c1nc(-c2ccc(C(F)(F)F)cc2F)c(F)cc1Cl ?
0 to 29%

I am curious: what pest or weed control at 140 g/ha value has been reported for COC(=O)c1nc(-c2cc3c(cc2Cl)OCO3)c(F)cc1Cl ?
0 to 29%

I am curious: what pest or weed control at 140 g/ha value has been reported for COC(=O)c1nc(-c2ccc(C(F)(F)F)c3ccoc23)c(F)cc1Cl ?
0 to 29%

I am curious: what pest or weed control at 140 g/ha value has been reported for COC(=O)c1nc(-c2ccc(N)cc2F)c(F)cc1Cl ?
0 to 29%

I am curious: what pest or weed control at 140 g/ha value has been reported for COC(=O)c1nc(-c2ccc(C(F)(F)F)cc2)c(F)cc1Cl ?
0 to 29%

I am curious: what pest or weed control at 140 g/ha value has been reported for COC(=O)c1nc(-c2ccc3c(c2)OC(F)(F)O3)c(F)cc1Cl ?
0 to 29%

I am curious: what pest or weed control at 140 g/ha value has been reported for COC(=O)c1nc(-c2ccc(C(F)(F)F)cc2Br)c(F)cc1F ?
45 to 59%
